The origin of these recorded values is ChEMBL document CHEMBL5620379.

- Assay Notes: Selectivity index, ratio of CC50 for mouse J774 macrophage to IC50 for Leishmania donovani amastigotes infected in J774 macrophage
- Format: toxicity
- Run Conditions: J774 macrophages, read-out: Ratio CC50/IC50
Recorded selectivity ratio split into classes lowest: < 2; middle: ≥ 2 and < 4; highest: ≥ 4

Previously resolved entries follow.
1. Cc1ccc(NC(=O)COc2ccc(-c3nc4ccccc4c(=O)n3C)cc2)cc1; middle
2. Cn1c(-c2ccc(OCC(=O)Nc3ccccc3)cc2)nc2ccccc2c1=O; lowest
3. Cn1c(-c2ccc(OCC(=O)Nc3cccc4cccnc34)cc2)nc2ccccc2c1=O; middle
4. Cn1c(-c2ccc(OCC(=O)Nc3ccc(F)cc3)cc2)nc2ccccc2c1=O; middle
5. COc1ccc(NC(=O)COc2ccc(-c3nc4ccccc4c(=O)n3C)cc2)cc1OC; middle
6. CCn1c(-c2ccc(OCC(=O)Nc3ccccc3)cc2)nc2ccccc2c1=O; highest
7. CCc1ccc(NC(=O)COc2ccc(-c3nc4ccccc4c(=O)n3C)cc2)cc1; lowest
8. CCCCCCCCCCCCCCCCOP(=O)([O-])OCC[N+](C)(C)C [MILTEFOSINE]; highest

Lookup: Class? Entry: Cn1c(-c2ccc(OCC(=O)Nc3cccc(C(F)(F)F)c3)cc2)nc2ccccc2c1=O
Found: middle

Lookup: Class? Entry: CCn1c(-c2ccc(OCC(=O)Nc3ccccn3)cc2)nc2ccccc2c1=O
Found: lowest

Lookup: Class? Entry: Cn1c(-c2ccc(OCC(=O)Nc3ccccn3)cc2)nc2ccccc2c1=O
Found: highest

====

- Assay Notes: Stability of the compound in Tris-buffer at 10 ug/ml at pH 7.4 measured upto 120 min by HPLC analysis
- Format: physicochemical
- Run Conditions: at 10 µg/mL, read-out: Stability
For each of the molecules below, state its remaining at 2 h, 10 ug/ml.
// unit must come after the numeric part

1) Cn1c(-c2ccc(OCC(=O)Nc3ccccn3)cc2)nc2ccccc2c1=O; 95.5%

Below: the item to evaluate.
Lookup: Supply remaining at 2 h, 10 ug/ml value. Item: CCn1c(-c2ccc(OCC(=O)Nc3ccccc3)cc2)nc2ccccc2c1=O
Found: 91.6%

====

For each of the molecules below, state its Activity.
- System: J774
- Assay Notes: Cytotoxicity against mouse J774 cells at 50 uM incubated for 72 hrs by MTT assay relative to control
- Type: toxicity, cell-based
- Run Conditions: j774, 72 h
Answers are plain numbers, in %.

Previously resolved entries follow.
1. Cn1c(-c2ccc(OCC(=O)Nc3ccc4c(c3)CCC4)cc2)nc2ccccc2c1=O; 36.13
2. CCn1c(-c2ccc(OCC(=O)Nc3ccccn3)cc2)nc2ccccc2c1=O; 38.97
3. Cn1c(-c2ccc(OCC(=O)Nc3ccc(C(C)(C)C)cc3)cc2)nc2ccccc2c1=O; 26.84

Give me Activity for each of these molecules, listed below.
1. Cc1ccc(NC(=O)COc2ccc(-c3nc4ccccc4c(=O)n3C)cc2)cc1Cl
2. Cc1ccc(NC(=O)COc2ccc(-c3nc4ccccc4c(=O)n3C)cc2)cc1C
3. COc1ccc(NC(=O)COc2cccc(-c3nc4ccccc4c(=O)n3C)c2)cc1
4. Cn1c(-c2ccc(OCC(=O)Nc3ccc(F)cc3)cc2)nc2ccccc2c1=O
5. Cn1c(-c2ccc(OCC(=O)Nc3ccccn3)cc2)nc2ccc(Cl)cc2c1=O

Found:
47.78
31.465
29.78
38.87
39.88

Give me Activity for each of these molecules, listed below.
1. Cn1c(-c2cccc(OCC(=O)Nc3ccc(Cl)cc3)c2)nc2ccccc2c1=O
2. Cn1c(-c2ccc(OCC(=O)Nc3ccc4c(c3)OCO4)cc2)nc2ccccc2c1=O
3. Cn1c(-c2ccc(OCC(=O)Nc3ccccc3)cc2)nc2ccccc2c1=O
4. Cn1c(-c2ccc(OCC(=O)Nc3ccc(Cl)cc3)cc2)nc2ccccc2c1=O
5. Cc1ccc(NC(=O)COc2ccc(-c3nc4ccccc4c(=O)n3C)cc2)cc1

Found:
[55.23, 45.89, 42.62, 58.88, 49.93]

Lookup: Supply Activity value. Item: COc1ccc(NC(=O)COc2ccc(-c3nc4ccccc4c(=O)n3C)cc2)cc1OC
Found: 37.47
